# STUDY TARGET: human galectin-1 (Gal-1, full length) (Homo sapiens)
# Construct: Gal-1 is a prototype galectin consisting of a single CRD and was used in full length; 6xHis tag with TEV protease site (N, cleaved yes); made in house; host or cells: BL21 Escherichia coli (pET-15b)
# Sequence (P09382 2-135): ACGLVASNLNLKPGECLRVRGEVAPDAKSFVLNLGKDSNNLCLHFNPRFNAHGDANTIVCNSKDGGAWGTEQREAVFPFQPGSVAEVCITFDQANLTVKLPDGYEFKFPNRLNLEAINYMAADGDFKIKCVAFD
# EXPERIMENT DESCRIPTION: Competitive fluorescence polarization assay, Gal-1
# Type: binding
# EXPERIMENTAL CONDITIONS: CSV supplement, unrounded mean; read-out: Gal1_Kd_mean_uM
pKd: −log10 of the molar value.
VALUE KIND: pKd

>>> value_observed("CC(=O)N(c1cccc(C(F)(F)F)c1)[C@@H]1O[C@H](CO)[C@@H](O[C@@H]2O[C@H](CO)[C@H](O)[C@H](O)[C@H]2O)[C@H](O)[C@H]1O [Compound 3d]")
3.25
>>> value_observed("CC(=O)N(c1cccc(C(=O)O)c1)[C@@H]1O[C@H](CO)[C@@H](O[C@@H]2O[C@H](CO)[C@H](O)[C@H](O)[C@H]2O)[C@H](O)[C@H]1O [Compound 3r]")
3.07
>>> value_observed("COc1ccc(N(C(C)=O)[C@@H]2O[C@H](CO)[C@@H](O[C@@H]3O[C@H](CO)[C@H](O)[C@H](O)[C@H]3O)[C@H](O)[C@H]2O)cc1 [Compound 3m]")
3.18

I = CNC(=O)c1cccc(N(C(C)=O)[C@@H]2O[C@H](CO)[C@@H](O[C@@H]3O[C@H](CO)[C@H](O)[C@H](O)[C@H]3O)[C@H](O)[C@H]2O)c1 [Compound 3w]
II = COc1cc(N(C(C)=O)[C@@H]2O[C@H](CO)[C@@H](O[C@@H]3O[C@H](CO)[C@H](O)[C@H](O)[C@H]3O)[C@H](O)[C@H]2O)cc(OC)c1OC [Compound 3o]
Input line: Hello, I am sorting some records. Could you say if I or II has the smaller pKd value? Could you answer with the label of the item you picked?
Output line: I
(I: 3.35, II: 3.62)
